Molecular target: Indoleamine 2,3-dioxygenase 1 (Homo sapiens, UniProt P14902)
Sequence (P14902 whole entry): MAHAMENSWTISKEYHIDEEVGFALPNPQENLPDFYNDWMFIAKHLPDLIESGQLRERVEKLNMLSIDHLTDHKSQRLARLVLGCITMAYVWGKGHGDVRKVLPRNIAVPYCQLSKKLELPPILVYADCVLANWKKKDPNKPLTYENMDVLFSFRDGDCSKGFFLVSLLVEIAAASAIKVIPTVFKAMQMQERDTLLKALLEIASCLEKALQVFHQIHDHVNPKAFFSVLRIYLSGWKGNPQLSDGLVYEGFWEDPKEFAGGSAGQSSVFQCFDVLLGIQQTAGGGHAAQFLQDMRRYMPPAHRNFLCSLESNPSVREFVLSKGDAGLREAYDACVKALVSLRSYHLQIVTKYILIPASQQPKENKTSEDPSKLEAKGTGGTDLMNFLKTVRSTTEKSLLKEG
Assay: Inhibition of human recombinant IDO1 measured after 60 mins by fluorescence based analysis
pIC50 for assorted compounds
// pIC50 is dimensionless: -log10 of concentration (M)

1. Cc1ccc2/c(=N/O)cc(C(=O)N3CCN(S(=O)(=O)c4ccc(F)c(F)c4)CC3)oc2c1 ... 5.25
2. COc1ccc2/c(=N/O)cc(C(=O)N3CCN(S(=O)(=O)c4cccc(Br)c4)CC3)oc2c1 ... 5.21
3. COc1ccc2/c(=N/O)cc(C(=O)N3CCN(S(=O)(=O)c4ccc(Br)cc4)CC3)oc2c1 ... 5.03
4. COc1ccc2/c(=N/O)cc(C(=O)N3CCN(S(=O)(=O)c4ccc(OC)c(OC)c4)CC3)oc2c1 ... 6.04

Then there is this compound:
[ask] What measured pIC50 goes with COc1ccc2/c(=N/O)cc(C(=O)N3CCN(S(=O)(=O)c4ccc(F)cc4)CC3)oc2c1 ?
[reply] 5.24

----------
Target: Indoleamine 2,3-dioxygenase 1 (Homo sapiens, UniProt P14902)
Assay: Inhibition of IDO1 in IFN-gamma treated human HeLa cells incubated for 48 hrs by absorbance based analysis
Type: cell-based
valueType: IC50

Please review the entries below; each comes with its answer.
1. COc1ccc2/c(=N/O)cc(C(=O)N3CCN(S(=O)(=O)c4ccc(Cl)cc4)CC3)oc2c1 ... 7.78 µM
2. COc1ccc2/c(=N/O)cc(C(=O)N3CCN(S(=O)(=O)c4ccc([N+](=O)[O-])cc4)CC3)oc2c1 ... 5.66 µM
3. COc1ccc2/c(=N/O)cc(C(=O)N3CCN(S(=O)(=O)c4ccccc4Cl)CC3)oc2c1 ... > 10 µM
4. COc1ccc2/c(=N/O)cc(C(=O)N3CCN(S(=O)(=O)c4ccc(F)c(F)c4)CC3)oc2c1 ... 1.04 µM
5. COc1ccc2/c(=N/O)cc(C(=O)N3CCN(S(=O)(=O)c4ccc(F)cc4)CC3)oc2c1 ... 7.23 µM
6. COc1ccc2/c(=N/O)cc(C(=O)N3CCN(S(=O)(=O)c4cccc([N+](=O)[O-])c4)CC3)oc2c1 ... 4.46 µM
7. COc1ccc(S(=O)(=O)N2CCN(C(=O)c3c/c(=N\O)c4ccc(C)cc4o3)CC2)cc1OC ... 7.8 µM

# context switch: different molecule, same IC50
[ask] Entry COc1ccc(S(=O)(=O)N2CCN(C(=O)c3c/c(=N\O)c4ccc(OC)cc4o3)CC2)cc1 : reported IC50 = ?
[reply] 8.52 µM

----------
Each entry below carries its reported IC50.
Target: UniProtKB P14902
Assay: Inhibition of human recombinant IDO1 measured after 60 mins by fluorescence based analysis

Example entries begin here.
1. Cc1ccc2/c(=N/O)cc(C(=O)N3CCN(S(=O)(=O)c4ccc(Cl)cc4)CC3)oc2c1 ... > 10 µM
2. COc1ccc2/c(=N/O)cc(C(=O)N3CCN(S(=O)(=O)c4ccccc4Cl)CC3)oc2c1 ... > 10 µM

[ask] Any idea what IC50 was measured for Cc1ccc2/c(=N/O)cc(C(=O)N3CCN(S(=O)(=O)c4ccc(Br)cc4)CC3)oc2c1 ?
[reply] > 10 µM
